The measured values listed here are drawn from patent US11596633B2.

# System: SNU-668
# assayComment: 3D cell viability (CTG)
# Format: cell-based
# setupConditions: SNU668; SNU-668, KRAS Q61K, 3D culture
readout: IC50

Indicate its recorded IC50; the molecule in question is Nc1nc(N2CCC3(CCC[C@H]3N)CC2)cnc1Sc1ccnc(Cl)c1Cl [Compound A]
> 10 µM

###

# Test system: pERK in MeWo cells
# assayComment: p-ERK AlphaLisa SureFire
# Format: cell-based
# setupConditions: Homo sapiens, MeWo, 1 h, read-out: geometric mean IC50 for reduction in pERK
readout: IC50 (nM)
Give the number; nM is assumed, so skip it.

For the compound Cc1nc(N2CCC3(CC2)CO[C@@H](C)[C@H]3N)c(CO)nc1-c1cccc(Cl)c1Cl , give its measured IC50 value.
24
